experiment: chemical genetic growth profiling, strain panel (AID 1159580);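 also: tested at 20 µM; growth read once vehicle control cultures reached saturation at 30 °C; 1 = growth at the plate median or of vehicle wells; lower values mean less growth of the strain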; details: S. cerevisiae deletion strains, growth OD, locus YOR136W, strain idh2
In all, about 5,500 compounds went through this assay and about 2,000 (36%) were called active. Inconclusive results (about 18%) are left out. Rule as the data show it: active = normalized growth mostly below about 0.91 (no sharp cut-off); inconclusive = no clear call, values can overlap the other calls; inactive = mostly above about 0.92. This is one part of the list.
The reply should be one of these categories: class 1 for active, class 0 for inactive

Compound	Class
COC(=O)C1=C(C)NC(C)=C(C(=O)OCCN(C)Cc2ccccc2)C1c1cccc([N+](=O)[O-])c1 (configuration not stated)	class 0

Please state the recorded outcome for this compound: "Cc1cc(=O)c2c(o1)-c1c(cc(O)c(O)c1C(=O)O)OC2"
class 0

How was "COc1ccc(-c2cc(=O)c3cc(OC)ccc3o2)cc1" classified in this test?
class 0

Please state the recorded outcome for this compound: "O=c1c2ccccc2oc2ccc(O)cc12"
class 0
